Tested on: CW2 cell line
assay.notes: Growth inhibition, CyQUANT Direct Cell Proliferation Assay, CW2
Assay type: cell-based
experimental.parameters: Homo sapiens, CW-2; CW2, 120 to 168 hours; read-out: CW2 GI50
Measured GI50 by item
quantity.kind: GI50

• Cc1ccc2c(c1)CCN2C(=O)Nc1ccc2c(c1)CN(C1CCC(=O)NC1=O)C2=O (stereo not shown) = < 100 nM
• O=C1CCC(N2Cc3cc(NC(=O)N4CCc5c(C6CC6)cccc54)ccc3C2=O)C(=O)N1 (stereo not shown) = < 100 nM
• COC[C@H]1CN(C(=O)Nc2ccc3c(c2)CN(C2CCC(=O)NC2=O)C3=O)c2ccccc21 (stereo partly shown) = 100 to 1000 nM
• COC[C@H]1Cc2c(C3CC3)cccc2N1C(=O)Nc1ccc2c(c1)CN(C1CCC(=O)NC1=O)C2=O (stereo partly shown) = < 100 nM
